# Measurement notes: Fecal excretion study in rats after oral NS, SF or CNS (LC–MS/MS)
# Assay type: in vivo
# Settings: rat feces, oral CNS 110 mg/kg, 24 h

Molecule	Excretion amount
CC(C)=CCC[C@](C)(O[C@@H]1O[C@H](CO[C@@H]2O[C@H](CO)[C@@H](O)[C@H](O)[C@H]2O)[C@@H](O)[C@H](O)[C@H]1O)[C@H]1CC[C@]2(C)[C@@H]1[C@H](O)C[C@@H]1[C@@]3(C)CC[C@H](O[C@@H]4O[C@H](CO)[C@@H](O)[C@H](O)[C@H]4O[C@@H]4O[C@H](CO)[C@@H](O)[C@H](O)[C@H]4O)C(C)(C)[C@@H]3CC[C@]12C [ginsenoside Rb1]	12.018 ± 3.497 µg
CC(C)=CCC[C@](C)(O[C@@H]1O[C@H](CO)[C@@H](O)[C@H](O)[C@H]1O)[C@H]1CC[C@]2(C)[C@@H]1[C@H](O)C[C@@H]1[C@@]3(C)CC[C@H](O)C(C)(C)[C@@H]3[C@@H](O[C@@H]3O[C@H](CO)[C@@H](O)[C@H](O)[C@H]3O[C@@H]3O[C@@H](C)[C@H](O)[C@@H](O)[C@H]3O)C[C@]12C [ginsenoside Re]	5.459 ± 1.584 µg
CC(C)=CCC[C@](C)(O[C@@H]1O[C@H](CO)[C@@H](O)[C@H](O)[C@H]1O)[C@H]1CC[C@]2(C)[C@@H]1[C@H](O)C[C@@H]1[C@@]3(C)CC[C@H](O)C(C)(C)[C@@H]3[C@@H](O[C@@H]3O[C@H](CO)[C@@H](O)[C@H](O)[C@H]3O)C[C@]12C [ginsenoside Rg1]	14.504 ± 4.143 µg
CC(C)=CCC[C@](C)(O[C@@H]1O[C@H](CO)[C@@H](O)[C@H](O)[C@H]1O)[C@H]1CC[C@]2(C)[C@@H]1[C@H](O)C[C@@H]1[C@@]3(C)CC[C@H](O[C@@H]4O[C@H](CO)[C@@H](O)[C@H](O)[C@H]4O[C@@H]4O[C@H](CO)[C@@H](O)[C@H](O)[C@H]4O)C(C)(C)[C@@H]3CC[C@]12C [ginsenoside Rd]	1.855 ± 1.046 µg

====

# Measurement notes: Urinary excretion study in rats after oral NS, SF or CNS (LC–MS/MS)
# Format: in vivo
# Settings: male, Sprague Dawley, rat, urine, oral, oral CNS 110 mg/kg, 2 h
Recorded metric: concentration at 2 h

Molecule	Result value
CC(C)=CCC[C@](C)(O[C@@H]1O[C@H](CO)[C@@H](O)[C@H](O)[C@H]1O)[C@H]1CC[C@]2(C)[C@@H]1[C@H](O)C[C@@H]1[C@@]3(C)CC[C@H](O[C@@H]4O[C@H](CO)[C@@H](O)[C@H](O)[C@H]4O[C@@H]4O[C@H](CO)[C@@H](O)[C@H](O)[C@H]4O)C(C)(C)[C@@H]3CC[C@]12C [ginsenoside Rd]	22 ng/mL
CC(C)=CCC[C@](C)(O[C@@H]1O[C@H](CO)[C@@H](O)[C@H](O)[C@H]1O)[C@H]1CC[C@]2(C)[C@@H]1[C@H](O)C[C@@H]1[C@@]3(C)CC[C@H](O)C(C)(C)[C@@H]3[C@@H](O[C@@H]3O[C@H](CO)[C@@H](O)[C@H](O)[C@H]3O)C[C@]12C [ginsenoside Rg1]	1510 ng/mL
CC(C)=CCC[C@](C)(O[C@@H]1O[C@H](CO[C@@H]2O[C@H](CO)[C@@H](O)[C@H](O)[C@H]2O)[C@@H](O)[C@H](O)[C@H]1O)[C@H]1CC[C@]2(C)[C@@H]1[C@H](O)C[C@@H]1[C@@]3(C)CC[C@H](O[C@@H]4O[C@H](CO)[C@@H](O)[C@H](O)[C@H]4O[C@@H]4O[C@H](CO)[C@@H](O)[C@H](O)[C@H]4O)C(C)(C)[C@@H]3CC[C@]12C [ginsenoside Rb1]	54 ng/mL
CC(C)=CCC[C@](C)(O[C@@H]1O[C@H](CO)[C@@H](O)[C@H](O)[C@H]1O)[C@H]1CC[C@]2(C)[C@@H]1[C@H](O)C[C@@H]1[C@@]3(C)CC[C@H](O)C(C)(C)[C@@H]3[C@@H](O[C@@H]3O[C@H](CO)[C@@H](O)[C@H](O)[C@H]3O[C@@H]3O[C@@H](C)[C@H](O)[C@@H](O)[C@H]3O)C[C@]12C [ginsenoside Re]	86 ng/mL

====

# Measurement notes: Fecal excretion study in rats after oral NS, SF or CNS (LC–MS/MS)
# Assay type: in vivo
# Settings: rat feces, oral CNS 110 mg/kg, 120 h
We begin with a simple list: items and their reported Accumulative excretion percentage.

Molecule	Accumulative excretion percentage [%]
CC(C)=CCC[C@](C)(O[C@@H]1O[C@H](CO)[C@@H](O)[C@H](O)[C@H]1O)[C@H]1CC[C@]2(C)[C@@H]1[C@H](O)C[C@@H]1[C@@]3(C)CC[C@H](O)C(C)(C)[C@@H]3[C@@H](O[C@@H]3O[C@H](CO)[C@@H](O)[C@H](O)[C@H]3O[C@@H]3O[C@@H](C)[C@H](O)[C@@H](O)[C@H]3O)C[C@]12C [ginsenoside Re]	6.182
CC(C)=CCC[C@](C)(O[C@@H]1O[C@H](CO[C@@H]2O[C@H](CO)[C@@H](O)[C@H](O)[C@H]2O)[C@@H](O)[C@H](O)[C@H]1O)[C@H]1CC[C@]2(C)[C@@H]1[C@H](O)C[C@@H]1[C@@]3(C)CC[C@H](O[C@@H]4O[C@H](CO)[C@@H](O)[C@H](O)[C@H]4O[C@@H]4O[C@H](CO)[C@@H](O)[C@H](O)[C@H]4O)C(C)(C)[C@@H]3CC[C@]12C [ginsenoside Rb1]	1.931
CC(C)=CCC[C@](C)(O[C@@H]1O[C@H](CO)[C@@H](O)[C@H](O)[C@H]1O)[C@H]1CC[C@]2(C)[C@@H]1[C@H](O)C[C@@H]1[C@@]3(C)CC[C@H](O)C(C)(C)[C@@H]3[C@@H](O[C@@H]3O[C@H](CO)[C@@H](O)[C@H](O)[C@H]3O)C[C@]12C [ginsenoside Rg1]	3.442
CC(C)=CCC[C@](C)(O[C@@H]1O[C@H](CO)[C@@H](O)[C@H](O)[C@H]1O)[C@H]1CC[C@]2(C)[C@@H]1[C@H](O)C[C@@H]1[C@@]3(C)CC[C@H](O[C@@H]4O[C@H](CO)[C@@H](O)[C@H](O)[C@H]4O[C@@H]4O[C@H](CO)[C@@H](O)[C@H](O)[C@H]4O)C(C)(C)[C@@H]3CC[C@]12C [ginsenoside Rd]	4.404

====

We begin with a simple list: items and their reported concentration at 36 h.
# Measurement notes: Urinary excretion study in rats after oral NS, SF or CNS (LC–MS/MS)
# Type: in vivo
# Settings: male, Sprague Dawley, rat, urine, oral, 60 mg/kg, oral NS 60 mg/kg, 36 h
Recorded metric: concentration at 36 h (ng/mL)

Compound	Result value
CC(C)=CCC[C@](C)(O[C@@H]1O[C@H](CO)[C@@H](O)[C@H](O)[C@H]1O)[C@H]1CC[C@]2(C)[C@@H]1[C@H](O)C[C@@H]1[C@@]3(C)CC[C@H](O)C(C)(C)[C@@H]3[C@@H](O[C@@H]3O[C@H](CO)[C@@H](O)[C@H](O)[C@H]3O)C[C@]12C [ginsenoside Rg1]	115
CC(C)=CCC[C@](C)(O[C@@H]1O[C@H](CO[C@@H]2O[C@H](CO)[C@@H](O)[C@H](O)[C@H]2O)[C@@H](O)[C@H](O)[C@H]1O)[C@H]1CC[C@]2(C)[C@@H]1[C@H](O)C[C@@H]1[C@@]3(C)CC[C@H](O[C@@H]4O[C@H](CO)[C@@H](O)[C@H](O)[C@H]4O[C@@H]4O[C@H](CO)[C@@H](O)[C@H](O)[C@H]4O)C(C)(C)[C@@H]3CC[C@]12C [ginsenoside Rb1]	61
CC(C)=CCC[C@](C)(O[C@@H]1O[C@H](CO)[C@@H](O)[C@H](O)[C@H]1O)[C@H]1CC[C@]2(C)[C@@H]1[C@H](O)C[C@@H]1[C@@]3(C)CC[C@H](O[C@@H]4O[C@H](CO)[C@@H](O)[C@H](O)[C@H]4O[C@@H]4O[C@H](CO)[C@@H](O)[C@H](O)[C@H]4O)C(C)(C)[C@@H]3CC[C@]12C [ginsenoside Rd]	17
CC(C)=CCC[C@](C)(O[C@@H]1O[C@H](CO)[C@@H](O)[C@H](O)[C@H]1O)[C@H]1CC[C@]2(C)[C@@H]1[C@H](O)C[C@@H]1[C@@]3(C)CC[C@H](O)C(C)(C)[C@@H]3[C@@H](O[C@@H]3O[C@H](CO)[C@@H](O)[C@H](O)[C@H]3O[C@@H]3O[C@@H](C)[C@H](O)[C@@H](O)[C@H]3O)C[C@]12C [ginsenoside Re]	15

// provenance: paper PMC6321168
